These measurements were taken from the supplement of paper PMC10567573.

B1: C1orf137 (parent)
chain: RQHHHQSSFPGSLPQETNLTLKVC

Variants of: B1
protocol.text: protein stability index of a GFP-peptide fusion (GPS, HEK-293T) (PSI 1-6); higher = more stable;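 note: lentivirally expressed fusions sorted by FACS into six bins by GFP to DsRed ratio, PSI derived from sequencing read proportions per bin multiplied by bin number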
test.context: c terminus: a fixed tail appended
Entries and their protein stability index values follow.

{"variant.label": "S8I", "protein stability index": 3.03}
{"variant.label": "Q2R", "protein stability index": 3.04}
{"variant.label": "Q2D", "protein stability index": 3.06}
{"variant.label": "P10D", "protein stability index": 2.99}
